Assay: Bidirectional transport experiments in the Caco-2 cell culture model
Type: in vitro ADME
Conditions: human, Caco-2, pH 7.4, Sal A 10^–4/9 mol/L, VC 10^–3 mol/L; read-out: Papp Basolateral → apical
Description: Caco-2 cells (passage number 34–36, American Type Culture Collection, Manassas, VA) were cultured at 37 °C in an atmosphere of 5% CO2 and 90% relative humidity in Dulbecco’s modified Eagle’s medium supplemented with 10% fetal bovine serum, 1% penicillin–streptomycin, 1% HEPES, 1% sodium pyruvate and 1% minimal essential medium nonessential amino acids. […] Cell monolayers were ready for experiments from 20 to 24 days postseeding. […]
quantity name: Papp B→A at 180 min
Please state the number and follow it with the unit.

Sure, the documented Papp B→A at 180 min for O=C(/C=C/c1ccc(O)c(O)c1/C=C/c1ccc(O)c(O)c1)O[C@H](Cc1ccc(O)c(O)c1)C(=O)O [Sal A, Salvianolic acid A] is 0.478 ×10⁻⁶ cm/s

Source of measurements: paper PMC6130628
